Catalogue of binders with associated Kd
Biological target: T1, Rb^P T664A (human, UniProt P06400 380-788, T664A)
T1 construct: also called variant 50
T1 sequence (looked up): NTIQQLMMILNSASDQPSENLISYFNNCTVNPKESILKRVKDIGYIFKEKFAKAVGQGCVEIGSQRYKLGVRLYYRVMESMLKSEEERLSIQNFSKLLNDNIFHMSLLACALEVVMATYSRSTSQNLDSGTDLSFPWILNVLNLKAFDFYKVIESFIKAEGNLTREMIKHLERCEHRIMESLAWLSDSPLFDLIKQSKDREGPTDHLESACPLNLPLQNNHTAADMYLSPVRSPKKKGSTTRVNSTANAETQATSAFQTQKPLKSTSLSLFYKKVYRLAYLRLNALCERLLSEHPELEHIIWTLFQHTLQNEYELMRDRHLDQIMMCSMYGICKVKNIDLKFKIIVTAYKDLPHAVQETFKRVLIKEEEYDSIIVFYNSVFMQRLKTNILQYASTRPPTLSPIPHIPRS
Test: fluorescence polarisation; 37 °C, after the 25 °C reading ramped over 7 min to 37 °C and 2 min incubation; unlabeled Rb^P against 1.5 nM TMR-E2F1^TD or 7.5 nM TMR-E7^LxCxE; 25 mM Tris pH 8.0, 200 mM NaCl, 1 mM DTT, 0.1% Tween-20; apparent Kd
Conditions: both partners purified
No end group written: not given here. TMR = tetramethyl rhodamine dye

| Binder | Reading unit | Kd |
| --- | --- | --- |
| DLYCYEQLN (also: TMR label, position not given here, source: synthetic peptide, bought: GenScript) [TMR-E7^LxCxE, LxCxE peptide of the E7 oncoprotein from HPV] | nM | 16 |
| {TMR}-GEGIRDLFDCDFGDLTPLD (also called E2F^TD; source: synthetic peptide, bought: GenScript) [TMR-E2F1^TD, peptide of the E2F1 transactivation domain] | nM | 24 |
